# test-system: Aminopeptidase N (Plasmodium falciparum (isolate 3D7))
# protocol-text: malaria alanyl aminopeptidase activity blockers – biochemical, fluorogenic H-Leu-NHMec substrate, 1536-well (AID 1445);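 note: plate controls were DMSO full reaction for no effect and no enzyme background for full effect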
# condition-info: recombinant M1AAP, H-Leu-NHMec fluorogenic kinetic assay; at 30 µM, stronger effect = higher value unless noted
Out of some 220,000 compounds screened, about 910 (0.41%) were called active. What follows is part of a selection rich in actives, with near analogues and random picks from the rest. Entries with a potency or affinity are not part of this list.
recorded-endpoint: inhibition (%)
The reply should contain only the number, in %.

Query block: Report inhibition, nothing else, for this molecule: `CCOC(=O)c1ccc(C(=O)OCC)nc1`
Result block: -0.25

Query block: Report inhibition, nothing else, for this molecule: `Cc1c(N2C(=O)/C(=C\c3ccccc3O)SC2=S)c(=O)n(-c2ccccc2)n1C`
Result block: 13

Query block: Report inhibition, nothing else, for this molecule: `CCN(CC)c1ccc2c(C)c(CN3CCOCC3)c(=O)oc2c1`
Result block: 7.04

Query block: Report inhibition, nothing else, for this molecule: `COc1ccc(CCNC(=O)c2cc(-c3ccc(C)c(C)c3O)n[nH]2)cc1OC`
Result block: 0.7

Query block: Report inhibition, nothing else, for this molecule: `C=CCNc1cc(C(F)(F)F)nc(-c2ccccn2)n1`
Result block: -2.8

Query block: Report inhibition, nothing else, for this molecule: `CCCC1=NN2C(=N)/C(=C\c3ccc(SCc4ccco4)o3)C(=O)N=C2S1`
Result block: 20.4

Query block: Report inhibition, nothing else, for this molecule: CC(CN1CCCC1)C(=O)NN (centres undefined)
Result block: -2.99

Query block: Report inhibition, nothing else, for this molecule: `COc1cc(/C=C2/C(=N)N3C=CSC3=NC2=O)ccc1OCCCOc1cc(C)ccc1C`
Result block: -5.49

Query block: Report inhibition, nothing else, for this molecule: `Cc1noc(NC(=O)c2cccc(C(F)(F)F)c2)c1Cl`
Result block: 1.44

Query block: Report inhibition, nothing else, for this molecule: `Nc1c(C(=O)O)ccc2c1C(=O)c1ccccc1C2=O`
Result block: 4.92

Query block: Report inhibition, nothing else, for this molecule: N#Cc1c(NC(=O)C2CCCO2)sc2c1CCCCCC2 (centres undefined)
Result block: 3.88

Query block: Report inhibition, nothing else, for this molecule: `CCC1=NN2C(=N)/C(=C\c3ccc(SCc4ccco4)o3)C(=O)N=C2S1`
Result block: 7.98

Query block: Report inhibition, nothing else, for this molecule: CC(=O)Nc1nc2n(n1)C(c1ccccc1)C=C(c1ccccc1)N2 (centres undefined)
Result block: 21.9

Query block: Report inhibition, nothing else, for this molecule: `Cc1c(N2C(=O)/C(=C/c3ccccc3)SC2=S)c(=O)n(-c2ccccc2)n1C`
Result block: 13.6

Query block: Report inhibition, nothing else, for this molecule: `Cc1nn(-c2cc(N3CCCC3)ccc2[N+](=O)[O-])c(=O)c2ccccc12`
Result block: 8.6

Query block: Report inhibition, nothing else, for this molecule: CC1=CC(c2ccccc2)n2nc(NS(=O)(=O)c3ccc(C)cc3)nc2N1 (centres undefined)
Result block: 9.04

Query block: Report inhibition, nothing else, for this molecule: `CC(C)(C)N/C=C(\C#N)S(=O)(=O)c1ccc(Br)cc1`
Result block: -2.81

Query block: Report inhibition, nothing else, for this molecule: `CCOc1cc(/C=C2\SC(=O)N=C2N)ccc1O`
Result block: 22

Query block: Report inhibition, nothing else, for this molecule: `Cc1cc2oc(=O)cc(CN3CCOCC3)c2cc1C`
Result block: 11.2
